# credit: patent US20230203155A1

tgt: T1, human ROR1-hFc fusion protein (extracellular domain) (human)
T1 construct: Whole entry 'human ROR1-Fc (CHO)'; also called hROR1; huROR1-Fc
protocol: SPR, ROR1-hFc on chip
reported.property: kon (M⁻¹ s⁻¹)
Numeric only. Scale: M⁻¹ s⁻¹

Solved cases below.
binder	reported.property	endpoint.result
CPF7 his myc (VNAR, VNAR) VNAR: TRVDQTPRTATKETGESLTINCVVTGAKYGLFATYWYRKNPGSSNQERISISGRYVESVNKRTMSFSLRIKDLTVADSATYYCKAVFMPQHWHPAAHWYDGAGTVLTVNQ	kon	2.33e+06
P3A1 his myc (VNAR, VNAR; also called P3A1 6xHis myc) VNAR: TRVDQTPRTATKETGESLTINCVLTDTSYGLYSTSWFRKNPGTTDWERMSIGGRYVESVNKGAKSFSLRIKDLTVADSATYYCKAREARHPWLRQWYDGAGTVLTVNQ	kon	2.47e+06
E7 his myc (VNAR, VNAR) VNAR: TRVDQTPRTATKETGESLTINCVVTGAKYGLAATYWYRKNPGSSNQERISISGRYVESVNKRTMSFSLRIKDLTVADSATYYCKAYPWAMWGQWYDGAGTVLTVNQ	kon	1.11e+06

# next binder below
Please report the recorded kon for P3A1-[G4S]5-P3A1 his myc (VNAR, VNAR homodimer by genetic fusion; also called P3A1-P3A1; P3A1 dimer) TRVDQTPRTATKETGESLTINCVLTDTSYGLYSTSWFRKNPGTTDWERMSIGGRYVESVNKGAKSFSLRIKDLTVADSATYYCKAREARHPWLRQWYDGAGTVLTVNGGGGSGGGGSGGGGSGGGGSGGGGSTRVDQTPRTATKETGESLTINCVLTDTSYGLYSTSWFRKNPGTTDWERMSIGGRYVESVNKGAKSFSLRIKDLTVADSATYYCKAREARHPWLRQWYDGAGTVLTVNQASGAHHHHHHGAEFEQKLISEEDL .
4.9e+06
